Listed next: entries and their corresponding apparent Kd.
System: MS2 coat protein
Experimental Details: apparent Kd, MS2 coat protein; higher = weaker binding; RNA-MaP array; FMN 200 µM where present
Test Settings: ligand present: flavin mononucleotide; designed as: ON switch for flavin mononucleotide
Endpoint Name: apparent Kd (nM)

polymer_sequence=ACAUACUUUCGAGGAUAUCGGUGAUAUAUUUAACGAGAAGGCGAUAAAAGAUAUAAACUUAUAGACAUGAGGAUCACCCAUGUA readout_units=nM value=27.1
polymer_sequence=UUUAAUCGAAACAUGAGGAUCACCCAUGUGUUGUAAUUAACAUAGGAUAUUUGUAUGCUUUUGUAAGAGAAGGAUGAUAAUACU readout_units=nM value=16.1
polymer_sequence=GUGGCACAUGAGGAUCACCCAUGUAGGUAGAACAUAGGAUAUCACCAACAAAAUACCUGGUGAGAAGGAUGAUGCC readout_units=nM value=59.8
polymer_sequence=UUGGACGUCUUAGGAUAUGUAGGAUAUUCCUACAUGAGGAUCACCCAUGUUGACAUGGAAGAAGGACAGAAGGACGAUGUCCAU readout_units=nM value=11.2
polymer_sequence=GGACGUCUCAUUAACAUGAGGAUCACCCAUGUCGAAAGACAUGAGGAUAUGGAUCCUAAUUGGAUCCAGAAGGCAUGGACGUCC readout_units=nM value=582
polymer_sequence=GCGAUUUUGUAAGGAUAUACACGAGUUUCAAGUGUAGAAGGUACUUACAUGAGGAUCACCCAUGUAUACUUGGAUAAUAGUCGU readout_units=nM value=23.5
polymer_sequence=GGACAUUUACAGAAGGGCAAGCUCGAAAGAGGAGAAAGAGAACGAGCUUGCAGGAUAUGUUGAACAUGAGGAUCACCCAUGUCU readout_units=nM value=7.69
polymer_sequence=GUAGCAUACAGAGGAUAUUCAAACCGGAAACGGAACAUGAGGAUCACCCAUGUGGCGAAAGCCAGGGAGAAGGCUGAAUGCUAC readout_units=nM value=16.8
polymer_sequence=GUUGCUAUCGGAGGAUAUUCAUACCGGAAACGGACAUGAGGAUCACCCAUGUCGCGAAAGCGUUGGGAGAAGGCCGAUAGCAAC readout_units=nM value=21.4
polymer_sequence=GGGCGUAAUACAUGAGGAUCACCCAUGUCAGAAAGGGUAAUCAGAAGGUACUAUUAGAGAAAGAGUAAGGAUAUGAAUACGCCC readout_units=nM value=169
polymer_sequence=GUCUUAUUACAGAAGGUGUUUUACAUGAGGAUCACCCAUGUUUUAAUGUUUAAAUUUGAUAUUUACAAGGAUAUGUACUAAUCU readout_units=nM value=19.4
polymer_sequence=GUAGCUAUUAUUAUACAUGAGGAUCACCCAUGUUACAUGUGUAAGGAUAUUGAAGUUAUUAUUAUCAAGAAGGUACUAUGCUAC readout_units=nM value=8.71
polymer_sequence=GUGGAGUACGUAGGAUAUGUAGGAUAUUCCUACAUGAGGAUCACCCAUGUAAGCAUGGAAGAAGGACAGAAGGACGUGCUCCAG readout_units=nM value=12.1
polymer_sequence=UUACUCAUGUAAGGAUAUGCAGCCGAAACGGCUGCAGAAGGUACUAAAAUACAUGAGGAUCACCCAUGUCUUUUUAUUUUAGAC readout_units=nM value=129
polymer_sequence=GGUUGACGACAAUUACAUGAGGAUCACCCAUGUUUUGGGAUGCAGGAUAUGUGGUAUAUUAAUUAACAGAAGGGCAAUAAUUUU readout_units=nM value=39.3
polymer_sequence=AGCUACGUUUCGUAGCAGCUAGGUGAGGAUAUCCUUUACAUGAGGAUCACCCAUGUAUAGCCAUGGGAGAAGGCGCCUAGAAAG readout_units=nM value=16.9
polymer_sequence=CCGACGAAAAUCGGGCUACAUGAGGAUCACCCAUGUGCUUCACAGGAUAUGGUACGUAGUGAGUUCCAGAAGGGUGAUUAAUCU readout_units=nM value=129
polymer_sequence=CAGCGAUAGCUGAACAAUCUAUCUGAGGAUAUUCAUAUUAAAACAUGAGGAUCACCCAUGUAUUGGGAGAAGGCAGAUAGAUUG readout_units=nM value=6.53
polymer_sequence=CACGUCCACACAGGAUAUGCUGGACUUUGUCCAGCAGAAGGGUGAAAACAUGAGGAUCACCCAUGUAGGACGUGUAUAUUUAAU readout_units=nM value=43
polymer_sequence=GUAGCAUUAUAAGGAUAUUCAUACCGGAAACGGACAUGAGGAUCACCCAUGUGGCGAAAGCCUUGGGAGAAGGUAUUGUGCUAC readout_units=nM value=24.6
polymer_sequence=ACCCGACAUGAGGAUCACCCAUGUAAACAAUCAUGAGGAUAUCCGGAGCAAGUGCUCCAGGGAGAAGGCAUAAAAG readout_units=nM value=42.2
polymer_sequence=GGUGUCAUCGAGAAGGCCUCAACAUGAGGAUCACCCAUGUUGUAAUAUGGGAGGAUAUCGAUGAUACAGCUACGUUUCGUAGCC readout_units=nM value=6.23
polymer_sequence=UUCGGCGCACAGAAGGAUCGGUACAUGAGGAUCACCCAUGUAAGCAAAGAUAGGAUAUGUGGAGCUUACAGGGAAAAUGAACAA readout_units=nM value=19
polymer_sequence=ACAUACAUUCGAGGAUAUCGGUGAUUUAUUUUACGAGAAGGCGAUUUAAGAUUUAUUAUUUUAGACAUGAGGAUCACCCAUGUA readout_units=nM value=24.5
polymer_sequence=GUGCAAACAUGAGGAUAUGUAUUAAAUAAUAAUACAGAAGGCAUGUCAAAUGACAUGAGGAUCACCCAUGUUGGCAAAAUGCGC readout_units=nM value=29.7
polymer_sequence=GGACGUGUCGUUUACAUGAGGAUCACCCAUGUCGAUAGACAUGAGGAUAUGGAUCCGAAUCGGAUCCAGAAGGCAUGCACGUCC readout_units=nM value=26.8
polymer_sequence=AGGAGACAUGAGGAUCACCCAUGUGAGAAGAGGCGAGGAUAUCGAAAAAAAAAAAAAAAACGAGAAGGCGCGAGAA readout_units=nM value=39.3
polymer_sequence=GACCCAAAUGAGAAGGUGUGUAUAAAUUAUAUACAAGGAUAUCGGUCGAGCGUGUUGACAUGAGGAUCACCCAUGUUGUGGGUU readout_units=nM value=25.7
